experiment: Pharmacokinetic study in rats (oral gavage and tail vein injection, plasma LC-MS/MS); assay type: in vivo; conditions: male, rat, SD rats, Po, 1 mg/kg
The following compounds are listed with their measured AUC(0-t) values.
Readout Type: AUC(0-t)

- Cc1nc(-c2nnn(C)c2NC(=O)O[C@H](C)c2ccccc2)ccc1C#C[C@@H]1C[C@H]1C(=O)O: 10000 to 20000 ng·h/mL
- CCc1nc(-c2nnn(C)c2NC(=O)O[C@H](C)C(F)(F)CC)ccc1C#CC1(CC(=O)O)CC(OC)C1 (stereo partly shown): 10000 to 20000 ng·h/mL
- CCOC1CC(C#Cc2ccc(-c3nnn(C)c3NC(=O)O[C@H](C)C(F)(F)CC)nc2C)(CC(=O)O)C1 (stereo partly shown): 3000 to 5000 ng·h/mL
- Cc1nc(-c2nnn(C)c2NC(=O)O[C@H](C)c2ccccc2)ccc1C#C[C@@H]1CC[C@H]1C(=O)O: 5000 to 10000 ng·h/mL
- Cc1nc(-c2nnn(C)c2NC(=O)O[C@H](C)C(F)(F)C(C)C)ccc1C#CC1(CC(=O)O)CC1: 3000 to 5000 ng·h/mL
- CCC(F)(F)[C@@H](C)OC(=O)Nc1c(-c2ccc(C#C[C@@H]3CCC[C@H]3C(=O)O)c(C)n2)nnn1C (mixture of isomers): 5000 to 10000 ng·h/mL
- CCC[C@@H](C)OC(=O)Nc1c(-c2ccc(C#C[C@@H]3C[C@H]3C(=O)O)c(C)n2)nnn1C (mixture of isomers): 5000 to 10000 ng·h/mL

---

experiment: Pharmacokinetic study in rats (oral gavage and tail vein injection, plasma LC-MS/MS); type: in vivo; conditions: rat, in vivo, iv, 1 mg/kg, SD rats
Readout Type: half-life (h)

• Cc1nc(-c2nnn(C)c2NC(=O)OC(C)CC(C)(F)F)ccc1C#CC1CC1C(=O)O (stereo not drawn) = 4.68
• Cc1nc(-c2nnn(C)c2NC(=O)O[C@H](C)CCC(C)(F)F)ccc1C#CC1(CC(=O)O)CC1 = 8.42
• CCC[C@H](C)OC(=O)Nc1c(-c2ccc(C#CC3(CC(=O)O)CC3)c(C)n2)nnn1C = 8.56
• Cc1nc(-c2nnn(C)c2NC(=O)O[C@H](C)CC(C)(C)F)ccc1C#C[C@@H]1CC[C@H]1C(=O)O = 7.66
• Cc1nc(-c2nnn(C)c2COC(=O)N(C)CCC(C)(F)F)ccc1C#CC1CCC1C(=O)O (racemic) = 7.63
• Cc1nc(-c2nnn(C)c2NC(=O)OC(C)CCCF)ccc1C#CC1(CC(=O)O)CC1 (single isomer, unassigned) = 6.47

---

Assay: Pharmacokinetic study in rats (oral gavage and tail vein injection, plasma LC-MS/MS)
Assay type: in vivo
Settings: rat, SD rats, Iv, 1 mg/kg
Protocol: Male SPF-grade SD rats (Beijing Vital River Laboratory Animal Technology Co., Ltd.) with a body weight range of 200 to 250 g were used. […] The concentration of compounds in plasma was detected by LC-MS/MS (AB SCIEX Qtrap4500). Data were analyzed using WinNonlin (version 5.2.1 Pharsight, Mountain View, CA) with a non-compartmental model to obtain PK parameters (including Cmax, C0, Tmax, AUClast, AUCinf, T1/2, etc.). […]
Readout Type: AUC(0-t)

- Cc1nc(-c2nnn(C)c2NC(=O)O[C@H](C)CC(C)(C)F)ccc1C#CC1(CC(=O)O)CC1: 3000 to 5000 ng·h/mL
- CCCC(C)OC(=O)Nc1c(-c2ccc(C#CC3CCCC3C(=O)O)c(C)n2)nnn1C (single isomer, unassigned): 3000 to 5000 ng·h/mL
- Cc1nc(-c2nnn(C)c2NC(=O)OC(C)CC2CC2)ccc1C#CC1CCC1C(=O)O (single isomer, unassigned): 3000 to 5000 ng·h/mL
